System: scopolamine-impaired passive avoidance learning
assay.notes: Reversal of scopolamine-induced amnesia of a passive-avoidance response
Assay type: in vivo, Wistar rats
protocol.conditions: test compound 30 mg/kg alone; mean ± SEM (n)
Description: (b) Reversal of Scopolamine-induced Amnesia of a Passive-avoidance Response. Postnatal day 80 male Wistar rats (300-350 g) were obtained from the Biomedical Facility, University College, Dublin. […] Animals were trained in a one-trial, step-through, light-dark passive avoidance paradigm. […] The smaller of the compartments measured 90 mm in width and contained a low power (6 V V) illumination source—the light compartment. The large compartment measured 210 mm in width and was not illuminated. […]
Recorded passive avoidance latency, Test cpd. alone for the following compounds

Use the examples below as a reference point.
>  <compound>
CN[C@@H]1c2ccccc2CN2C(=O)CC[C@@H]12 (relative stereo) [Example 26b]

>  <experimental.system>
scopolamine-impaired passive avoidance learning

>  <reading>
600 (3) seconds

$$$$
>  <compound>
CN[C@@H]1c2ccccc2CN2CCC[C@@H]12 (relative stereo) [Example 34a]

>  <experimental.system>
scopolamine-impaired passive avoidance learning

>  <reading>
559 ± 50 (3) seconds

$$$$
>  <compound>
N[C@@H]1c2ccccc2CN2CCCC[C@H]12 (relative stereo)

>  <experimental.system>
scopolamine-impaired passive avoidance learning

>  <reading>
188 ± 102 (6) seconds

$$$$

Query: # value lookup — system scopolamine-impaired passive avoidance learning, readout passive avoidance latency, Test cpd. alone, item CN[C@@H]1c2ccccc2CN2CCCC[C@H]12 (relative stereo)
Result: 529 ± 78 (6) seconds
